SUBJECT_OF_TEST: T1, interleukin-6 (IL-6) (human, UniProt P05231)
T1 construct: interleukin-6, human; A biotinylated IL-6 was used in the cell uptake assays; for SPR and ELISA the IL-6 was amine-coupled or coated
MEASUREMENT_PROTOCOL: SPR; IL-6 amine-coupled on a CM5 chip (Biacore T200); analytes in multi-cycle kinetics, 0.39 to 100 nM, 30 µL/min, 180 s association, 1200 s dissociation, HBS-N + 10 mM CaCl2; global fit, 1:1 model; where koff was below the detection limit KD was estimated from kon and the theoretical maximum koff
EXPERIMENTAL_PARAMETERS: both partners purified
Each entry below carries its recorded koff.

// worked examples, koff included
BINDER	READING
siltuximab-TGN 1:10 (antibody, V domains shown, as the heavy chain of m1; as the light chain of m1; Heterogeneous conjugate; See m1 for the DrugBank ids; also called TGN-modified siltuximab variant 1:10; source: HEK293T, transfected, purified (Protein A, SEC), then conjugated with Tris-GalNAc-PEG5-sulfo-NHS ester at 1:10; copies: 2 + 2) VH: EVQLVESGGKLLKPGGSLKLSCAASGFTFSSFAMSWFRQSPEKRLEWVAEISSGGSYTYYPDTVTGRFTISRDNAKNTLYLEMSSLRSEDTAMYYCARGLWGYYALDYWGQGTSVTVSS VL: QIVLIQSPAIMSASPGEKVTMTCSASSSVSYMYWYQQKPGSSPRLLIYDTSNLASGVPVRFSGSGSGTSYSLTISRMEAEDAATYYCQQWSGYPYTFGGGTKLEIK	< 1e-05 s⁻¹
siltuximab (antibody, V domains shown, heavy chain of siltuximab, chimeric (human-murine) anti-IL-6 antibody; light chain of siltuximab; Full-length IgG; also called wildtype siltuximab; unmodified siltuximab; source: HEK293T, transfected, purified from supernatant (Protein A, SEC); copies: 2 + 2) VH: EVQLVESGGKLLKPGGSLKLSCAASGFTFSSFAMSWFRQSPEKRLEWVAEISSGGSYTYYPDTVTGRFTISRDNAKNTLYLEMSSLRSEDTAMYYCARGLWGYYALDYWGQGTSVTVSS VL: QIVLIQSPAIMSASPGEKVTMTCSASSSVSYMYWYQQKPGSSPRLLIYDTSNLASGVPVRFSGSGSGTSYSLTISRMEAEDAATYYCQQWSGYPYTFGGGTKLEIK	< 1e-05 s⁻¹
siltuximab-TGN 1:5 (antibody, V domains shown, as the heavy chain of m1; as the light chain of m1; Heterogeneous conjugate; See m1 for the DrugBank ids; also called TGN-modified siltuximab variant 1:5; source: HEK293T, transfected, purified (Protein A, SEC), then conjugated with Tris-GalNAc-PEG5-sulfo-NHS ester at 1:5; copies: 2 + 2) VH: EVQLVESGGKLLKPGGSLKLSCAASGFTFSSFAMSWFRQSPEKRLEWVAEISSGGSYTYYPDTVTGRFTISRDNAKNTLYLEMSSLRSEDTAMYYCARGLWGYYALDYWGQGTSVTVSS VL: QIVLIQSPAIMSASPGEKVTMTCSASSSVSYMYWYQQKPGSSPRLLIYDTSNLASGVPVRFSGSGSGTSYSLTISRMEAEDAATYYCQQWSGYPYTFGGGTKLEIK	< 1e-05 s⁻¹

Now look at this one.
Lab note: measured koff of siltuximab-TGN 1:1 (antibody, V domains shown, as the heavy chain of m1; as the light chain of m1; Heterogeneous conjugate; See m1 for the DrugBank ids; also called TGN-modified siltuximab variant 1:1; source: HEK293T, transfected, purified (Protein A, SEC), then conjugated with Tris-GalNAc-PEG5-sulfo-NHS ester at 1:1; copies: 2 + 2) VH: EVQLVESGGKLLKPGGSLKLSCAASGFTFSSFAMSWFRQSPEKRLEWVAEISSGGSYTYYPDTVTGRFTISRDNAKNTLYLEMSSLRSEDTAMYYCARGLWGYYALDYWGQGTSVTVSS VL: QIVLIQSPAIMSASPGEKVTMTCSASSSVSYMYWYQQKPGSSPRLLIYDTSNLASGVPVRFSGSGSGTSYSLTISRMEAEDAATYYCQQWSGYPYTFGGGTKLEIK was < 1e-05 s⁻¹

Cited source: paper PMC13083842
